Test: Drug level in C3H/HeJ mouse blood at 0.03 mg/kg, in administered at 2 and 5 hrs followed by 0.08 mg/kg, ip infusion at 30, 48, 72 and 96 hrs measured at 97 hrs
Assay type: ADME, organism-based
Conditions: read-out: Drug uptake
ENDPOINT: concentration at 97 h (ng/mL)

QUERY_SMILES: CO[C@H]1C[C@@H]2CC[C@@H](C)[C@@](O)(O2)C(=O)C(=O)N2CCCC[C@H]2C(=O)O[C@H]([C@H](C)C[C@@H]2CC[C@@H](O)[C@H](OC)C2)CC(=O)[C@H](C)/C=C(\C)[C@@H](O)[C@@H](OC)C(=O)[C@H](C)C[C@H](C)/C=C/C=C/C=C/1C
UOM: ng/mL
EXPERIMENTAL_RESULT: 38

From: ChEMBL document CHEMBL1240404
